- SYSTEM: GPR139 (Homo sapiens, UniProt Q6DWJ6)
- Sequence (Q6DWJ6 1-353): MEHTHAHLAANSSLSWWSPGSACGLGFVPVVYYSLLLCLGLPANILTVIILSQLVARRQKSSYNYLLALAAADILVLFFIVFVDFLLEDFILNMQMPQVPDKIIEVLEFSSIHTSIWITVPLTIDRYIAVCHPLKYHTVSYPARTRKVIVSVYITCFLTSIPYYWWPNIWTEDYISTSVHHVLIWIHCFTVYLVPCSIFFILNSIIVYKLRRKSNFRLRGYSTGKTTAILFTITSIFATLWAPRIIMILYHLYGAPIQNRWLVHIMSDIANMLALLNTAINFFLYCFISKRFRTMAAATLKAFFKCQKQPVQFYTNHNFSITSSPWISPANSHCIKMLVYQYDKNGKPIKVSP
- EXPERIMENT: GPR139 Agonist titration / agonist counterscreen assay (calcium detection, HEK-GPR139 cells)
- Assay type: cell-based
- Design: expressed in transfected cells; host or cells: HEK Aequorin cells, Maxcyte transient transfection
- CONDITION PARAMETERS: GPR139 Agonist Activity; fitted dose-response curve
Binned Hill Slope; ranges: low range (below 0.7), mid range (0.7 to below 0.9), high range (0.9 or more)

The entry to classify is "CC(C)c1ccc(NC(=O)Cn2ncc3c2-c2ccccc2OC3)cc1" ; which class holds it?
low range

For "Cc1ccc(SCC(=O)Nc2nnc(-c3ccccc3Cl)o2)cc1" , which Hill Slope bin applies?
low range

Band for CC(Oc1ccc(Cl)cc1Cl)C(=O)NNC(=O)c1ccc(F)cc1 (stereo not shown) ?
mid range

Exam item: assign CC(C(=O)NCCC1=CCCCC1)n1c(=O)c2cccn2c2ccccc21 (stereo not shown) to the correct category.
low range

For "Cc1ccc(SCC(=O)NNC(=O)c2cccs2)cc1" , which Hill Slope bin applies?
mid range

Band for the recorded Hill Slope of O=C(NNC(=O)C1CC1c1ccccc1)Nc1cccc(Cl)c1 (stereo not shown) ?
high range

Bin? O=C(CC(C(=O)N1CCc2ccccc21)n1ccnc1)NCC1COc2ccccc2O1 (stereo not shown)
high range

Lab log: Cc1cccnc1CNC(=O)CCC1(Cc2cccc3ccccc23)CCC(=O)N1 (stereo not shown) — assign Hill Slope category
mid range

Please let me know in which category the item O=C(c1ccccc1)C1CCCCC1S(=O)(=O)O (stereo not shown) belongs.
high range

Determine which band this molecule sits in: "Cc1cccc(COc2coc(COc3nccn3C)cc2=O)c1"
low range

Consider "O=C(Cn1ccc([N+](=O)[O-])n1)NCCc1ccc(Cl)cc1" . To which Hill Slope class does it belong?
high range

Which class is correct for the following molecule? "O=C(CSc1ccc(Cl)cc1)Nc1nnc(-c2ccco2)o1"
low range

For the record "Cc1cccc(CCNC(=O)c2c[nH]c3cc(-c4cn[nH]c4)ccc23)c1" , report the class its Hill Slope corresponds to.
low range
